The measurements presented in this section are drawn from patent US20230043863A1.

experimental_protocol: Balb/C mouse pharmacokinetics (plasma, colon, ileum)
Format: in vivo
conditions: male, po, Balb/C mice, p.o. 5 mg/kg, colon, read-out: Mean detention time MRT
Would you mind labelling by MRT? At or over 4 h is y, under is n.

Known results for compounds:
sample_smiles: Cc1cc(Nc2nc(N[C@@H]3C[C@H]4CC[C@@H](C3)N4CCC#N)nc3ccsc23)n[nH]1
class_name: n
--
sample_smiles: Cc1cc(Nc2nc(N[C@@H]3C[C@H]4CC[C@@H](C3)N4S(=O)(=O)N3CC(C#N)C3)nc3ccccc23)n[nH]1
class_name: y
--
sample_smiles: Cc1cc(Nc2nc(N[C@@H]3C[C@H]4CC[C@@H](C3)N4CCC#N)nc3cc(Cl)ccc23)n[nH]1
class_name: y

# input I'd appreciate it if you could say whether "Cc1cc(Nc2nc(N[C@@H]3C[C@H]4CC[C@@H](C3)N4CCC#N)nc3cc(-c4cccnc4)ccc23)n[nH]1" has MRT at least equal to 4 h.
# output n

# input I'd appreciate it if you could say whether "Cc1cc(Nc2nc(N[C@@H]3C[C@H]4CC[C@@H](C3)N4S(=O)(=O)N3CC(C#N)C3)nc3sccc23)n[nH]1" has MRT at least equal to 4 h.
# output n

# input I'd appreciate it if you could say whether "Cc1cc(Nc2nc(N[C@@H]3C[C@H]4CC[C@@H](C3)N4S(=O)(=O)N3CC(C#N)C3)nc3cc(Cl)ccc23)n[nH]1" has MRT at least equal to 4 h.
# output y

---

Measured log10 of half-life of individual entries
experimental_protocol: Balb/C mouse pharmacokinetics (plasma, colon, ileum)
Format: in vivo
conditions: male, po, Balb/C mice, p.o. 5 mg/kg, ileum, read-out: Half life period t1/2 (converted)
Scale: decimal log of half-life, half-life in min.

Worked cases, log10 of half-life given:
sample_smiles: Cc1cc(Nc2nc(N(C)[C@@H]3C[C@H]4CCC[C@@H](C3)N4C(=O)CN3CCN(C)CC3)nc3sccc23)n[nH]1
observed_measurement: 2.08
//
sample_smiles: Cc1cc(Nc2nc(N[C@@H]3C[C@H]4CCC[C@@H](C3)N4C(=O)c3nccn3C)nc3sccc23)n[nH]1
observed_measurement: 1.69
//
sample_smiles: Cc1cc(Nc2nc(N[C@@H]3C[C@H]4CCC[C@@H](C3)N4S(=O)(=O)c3ccccn3)nc3sccc23)n[nH]1
observed_measurement: 1.50
//
sample_smiles: Cc1cc(Nc2nc(N[C@@H]3C[C@H]4CCC[C@@H](C3)N4CCC#N)nc3scnc23)n[nH]1
observed_measurement: 1.76
//
sample_smiles: Cc1cc(Nc2nc(N[C@@H]3C[C@@H]4CN(CCC#N)C[C@@H]4C3)nc3ccsc23)n[nH]1
observed_measurement: 1.73
//
sample_smiles: Cc1cc(Nc2nc(N[C@@H]3C[C@H]4CCC[C@@H](C3)N4C(=O)c3ccncc3)nc3sccc23)n[nH]1
observed_measurement: 1.47
//
sample_smiles: Cc1cc(Nc2nc(N[C@@H]3C[C@H]4CC[C@@H](C3)N4C(=O)CN3CCOCC3)nc3sccc23)n[nH]1
observed_measurement: 1.60
//
sample_smiles: Cc1cc(Nc2nc(N[C@@H]3C[C@H]4CC[C@@H](C3)N4S(=O)(=O)N3CC(C#N)C3)nc3cc(Cl)ccc23)n[nH]1
observed_measurement: 1.68
//
sample_smiles: Cc1cc(Nc2nc(NC3CCN(CCC#N)CC3)nc3sccc23)n[nH]1
observed_measurement: 1.56
//
sample_smiles: CNCC(=O)N1[C@@H]2CCC[C@H]1C[C@H](Nc1nc(Nc3cc(C)[nH]n3)c3ccsc3n1)C2
observed_measurement: 1.74

Now look at this entry.
# input Returns the measured log10 of half-life for the input compound. Input: "Cc1cc(Nc2nc(N[C@@H]3C[C@H]4CC[C@@H](C3)N4CCC#N)nc3sc(C)cc23)n[nH]1"
# output 1.74

---

experimental_protocol: Balb/C mouse pharmacokinetics (plasma, colon, ileum)
Type: in vivo
conditions: male, po, Balb/C mice, p.o. 5 mg/kg, colon, read-out: Time to peak tmax
recorded_endpoint: Tmax (h)
Note: unit h is implicit; provide only the numeric part.

sample_smiles: CNCC(=O)N1[C@@H]2CCC[C@H]1C[C@H](Nc1nc(Nc3cc(C)[nH]n3)c3ccsc3n1)C2
Tmax (h): 3
--
sample_smiles: Cc1cc(Nc2nc(N[C@@H]3C[C@H]4CCC[C@@H](C3)N4C(=O)CN3CCOCC3)nc3ccsc23)n[nH]1
Tmax (h): 3
--
sample_smiles: Cc1cc(Nc2nc(N[C@@H]3C[C@H]4CC[C@@H](C3)N4CCC#N)nc3sc(C)cc23)n[nH]1
Tmax (h): 7

# input Returns the measured Tmax for the input compound. Input: "Cc1cc(Nc2nc(N[C@@H]3C[C@H]4CC[C@@H](C3)N4C(=O)CN3CCOCC3)nc3sccc23)n[nH]1"
# output 7

# input Returns the measured Tmax for the input compound. Input: "Cc1cc(Nc2nc(N[C@@H]3C[C@H]4CC[C@@H](C3)N4CCC#N)nc3cc(Cl)ccc23)n[nH]1"
# output 3

# input Returns the measured Tmax for the input compound. Input: "Cc1cc(Nc2nc(N[C@@H]3C[C@H]4CC[C@@H](C3)N4S(=O)(=O)N3CC(C#N)C3)nc3sccc23)n[nH]1"
# output 3

# input Returns the measured Tmax for the input compound. Input: "Cc1cc(Nc2nc(N[C@@H]3C[C@H]4CC[C@@H](C3)N4S(=O)(=O)N3CC(C#N)C3)nc3cc(Cl)ccc23)n[nH]1"
# output 5

# input Returns the measured Tmax for the input compound. Input: "Cc1cc(Nc2nc(N[C@@H]3C[C@H]4CCC[C@@H](C3)N4C(=O)c3ccncc3)nc3sccc23)n[nH]1"
# output 3

---

Measured pIC50 of individual entries
system_tested: UniProtKB P29597
Sequence (P29597 whole entry): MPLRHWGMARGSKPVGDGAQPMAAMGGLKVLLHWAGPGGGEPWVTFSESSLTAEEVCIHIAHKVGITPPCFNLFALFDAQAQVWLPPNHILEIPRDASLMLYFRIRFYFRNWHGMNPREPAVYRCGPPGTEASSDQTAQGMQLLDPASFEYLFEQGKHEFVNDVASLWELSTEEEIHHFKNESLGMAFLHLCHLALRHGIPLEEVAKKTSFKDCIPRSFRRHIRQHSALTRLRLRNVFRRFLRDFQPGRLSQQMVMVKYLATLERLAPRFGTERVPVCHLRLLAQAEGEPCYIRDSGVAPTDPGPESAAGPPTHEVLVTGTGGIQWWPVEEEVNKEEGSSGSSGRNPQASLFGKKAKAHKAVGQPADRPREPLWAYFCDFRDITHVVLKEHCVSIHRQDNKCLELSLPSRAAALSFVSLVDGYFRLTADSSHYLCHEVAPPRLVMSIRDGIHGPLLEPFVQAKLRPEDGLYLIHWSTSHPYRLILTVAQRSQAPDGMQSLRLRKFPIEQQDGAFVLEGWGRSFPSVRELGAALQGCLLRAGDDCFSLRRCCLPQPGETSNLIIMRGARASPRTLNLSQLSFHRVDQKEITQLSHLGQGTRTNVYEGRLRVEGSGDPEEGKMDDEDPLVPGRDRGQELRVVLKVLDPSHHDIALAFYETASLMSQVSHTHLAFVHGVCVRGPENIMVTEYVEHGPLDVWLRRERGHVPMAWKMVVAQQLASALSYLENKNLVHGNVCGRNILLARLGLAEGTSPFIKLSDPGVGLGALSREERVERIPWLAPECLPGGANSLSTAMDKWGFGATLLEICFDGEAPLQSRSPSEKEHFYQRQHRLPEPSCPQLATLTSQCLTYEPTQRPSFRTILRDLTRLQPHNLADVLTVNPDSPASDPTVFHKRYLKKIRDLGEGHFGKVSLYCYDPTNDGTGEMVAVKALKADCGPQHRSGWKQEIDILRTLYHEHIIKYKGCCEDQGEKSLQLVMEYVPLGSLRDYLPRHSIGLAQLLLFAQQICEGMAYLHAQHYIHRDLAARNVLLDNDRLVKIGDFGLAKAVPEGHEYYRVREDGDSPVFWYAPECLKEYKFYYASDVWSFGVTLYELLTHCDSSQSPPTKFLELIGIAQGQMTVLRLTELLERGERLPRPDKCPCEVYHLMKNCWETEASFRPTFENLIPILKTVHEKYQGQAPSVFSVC
experimental_protocol: JAK kinase activity inhibition, TR-FRET (TYK2)
Type: biochemical
conditions: TR-FRET kinase assay
// pIC50: -log10(molar conc.)

molecule: Cc1cc(Nc2nc(N[C@@H]3C[C@H]4CC[C@@H](C3)N4C(=O)CN(C)C)nc3sccc23)n[nH]1 [Embodiment 243]
system_tested: UniProtKB P29597
pIC50: 8.83
--
molecule: CCc1cc(Nc2cc3ncccc3c(N[C@@H]3C[C@H]4CC[C@@H](C3)N4CCC#N)n2)n[nH]1 [Embodiment 11]
system_tested: UniProtKB P29597
pIC50: 8.04
--
molecule: Cc1cc(Nc2nc(N[C@@H]3C[C@H]4CC[C@@H](C3)N4C(=O)[C@H]3CCCN3)nc3sccc23)n[nH]1 [Embodiment 248]
system_tested: UniProtKB P29597
pIC50: 9.44

# input Please provide the recorded pIC50 for OCc1cnc(Nc2cc3ncccc3c(N[C@@H]3C[C@H]4CC[C@@H](C3)N4CCF)n2)s1 [Embodiment 167] , tested on UniProtKB P29597.
# output 8.14

---

Measured Cmax of individual entries
experimental_protocol: Balb/C mouse pharmacokinetics (plasma, colon, ileum)
Assay type: in vivo
conditions: male, po, Balb/C mice, p.o. 5 mg/kg, ileum, read-out: Blood concentration Cmax
Note: unit ng/mL is implicit; provide only the numeric part.

Worked cases, Cmax given:
sample_smiles: Cc1cc(Nc2nc(N[C@@H]3C[C@H]4CC[C@@H](C3)N4S(=O)(=O)N3CC(C#N)C3)nc3sccc23)n[nH]1
Cmax [ng/mL]: 4140
--
sample_smiles: Cc1cc(Nc2nc(NC3CCN(CCC#N)CC3)nc3sccc23)n[nH]1
Cmax [ng/mL]: 21100
--
sample_smiles: Cc1cc(Nc2nc(N[C@@H]3C[C@H]4CC[C@@H](C3)N4S(=O)(=O)N3CC(C#N)C3)nc3ccccc23)n[nH]1
Cmax [ng/mL]: 321
--
sample_smiles: Cc1cc(Nc2nc(N[C@@H]3C[C@H]4CCC[C@@H](C3)N4C(=O)CN3CCOCC3)nc3sccc23)n[nH]1
Cmax [ng/mL]: 16800

# input Returns the measured Cmax for the input compound. Input: "CNCC(=O)N1[C@@H]2CCC[C@H]1C[C@H](Nc1nc(Nc3cc(C)[nH]n3)c3ccsc3n1)C2"
# output 13800

# input Returns the measured Cmax for the input compound. Input: "Cc1cc(Nc2nc(N[C@@H]3C[C@H]4CC[C@@H](C3)N4CCC#N)nc3cc(-c4cccnc4)ccc23)n[nH]1"
# output 2330

# input Returns the measured Cmax for the input compound. Input: "Cc1cc(Nc2nc(N[C@@H]3C[C@H]4CCC[C@@H](C3)N4C(=O)CN3CCOCC3)nc3ccsc23)n[nH]1"
# output 7380

---

experimental_protocol: Balb/C mouse pharmacokinetics (plasma, colon, ileum)
Assay type: in vivo
conditions: male, plasma, po, Balb/C mice, p.o. 5 mg/kg, blood, read-out: Mean detention time MRT
Would you mind labelling by MRT? At or over 2 h is y, under is n.

molecule: Cc1cc(Nc2nc(N[C@@H]3C[C@H]4CCC[C@@H](C3)N4C(=O)CN3CCOCC3)nc3sccc23)n[nH]1 [Embodiment 246]
class_name: n
//
molecule: Cc1cc(Nc2nc(N[C@@H]3C[C@H]4CCC[C@@H](C3)N4C(=O)CN3CCOCC3)nc3ccsc23)n[nH]1 [Embodiment 288]
class_name: y
//
molecule: Cc1cc(Nc2nc(N[C@@H]3C[C@H]4CC[C@@H](C3)N4S(=O)(=O)N3CC(C#N)C3)nc3ccccc23)n[nH]1 [Embodiment 213]
class_name: y

# input I'd appreciate it if you could say whether Cc1cc(Nc2nc(N[C@@H]3C[C@H]4CC[C@@H](C3)N4CCC#N)nc3c2cnn3C)n[nH]1 [Embodiment 295] has MRT at least equal to 2 h.
# output n

# input I'd appreciate it if you could say whether Cc1cc(Nc2nc(NC3CCN(CCC#N)CC3)nc3sccc23)n[nH]1 [Embodiment 301] has MRT at least equal to 2 h.
# output n

# input I'd appreciate it if you could say whether Cc1cc(Nc2nc(N[C@@H]3C[C@H]4CC[C@@H](C3)N4C(=O)CN3CCOCC3)nc3sccc23)n[nH]1 [Embodiment 244] has MRT at least equal to 2 h.
# output y
